Cited source: patent US20160200813A1

- System Tested: Mouse LRP-8 expressed on HEK293 cells (mouse) (UniProt Q924X6)
- Protocol Text: cell-based binding on MOUSE LRP8-HEK293, supernatant 1:5
Metric: fold over isotype control (fold)
Record the value in fold, omitting the unit from your answer.

## Task Suppose we examine the binder anti-LRP-8 BGK.6E3.F4 [r/m IgG2a/K] (antibody, V domains shown) VH: EVQLVESGGGLVQPGKSLKLSCAASGFTFSDYNMAWVRQAPKKGLEWVATIMYDGSRTFYRDSVKGRYTFSRDNAKSTLYLQMDSLRSEDTATYYCATGRNWFAYWGQGTLVTVSS VL: DIIMTQSPSSLAVSAGETVTINCKSSQSLLSSGKQKNYLAWYQQKPGQSPKLLIYLASTRESGVPDRFIGSGSGTDFTLTISSMQAEDLAIYYCQQHYDTPLTFGSGTKLEIK ; what fold over isotype control value has been reported?
## Result 0.72

## Task Can you share its fold over isotype control? I mean this binder: anti-LRP-8 BGK.2C8.E6.D3 [r/m IgG2a/K] (antibody, V domains shown) VH: QVTLKESGPGILQPSQTLSLTCTFSGFSLNTYGMGVGWVRQPSGKGLEWLANIWWDDDKFYNPSLKNRLTVSKDTSNNQAFLRITNGDTADTATYFCARILGEDIGGALDAWGQGTSVTVSS VL: DTVLTQSPALAVSPGERVSISCRASEGVNSYMHWYQQNPGQQSKLLIYRTSNLASGVPARFGGSGSGTDFTLTIDPVEADDTATYFCQQSWNDPPTFGGGTKLELK
## Result 0.19

## Task What value of measured fold over isotype control is listed for anti-LRP-8 BGK.5D10.E4 [r/m IgG2a/K] (antibody, V domains shown) VH: QVQLRETGPDLVQPTQTLSLTCTVSGFSLTNYPVQWVRQPPGSGLEWLGIMWPSGAADFNPALKSRLSISRDTSKSQFFLRMDNLQTDDTAIYFCARGRGYSSPYAMDAWGQGTSVTVSS VL: DIQMTQSPASLSASLGETVSIECLASEDIYNNLAWYQQKPGKSPHLLIHFTSNLQDGVPSRFSGSGSGTQYSLKINSLESEDGATYFCLQDSEYPLTFGSGTKLEIK ?
## Result 0.04

## Task Reported fold over isotype control, binder BGK-7F7 (GENOVAC candidate clone of Table 17) (antibody, V domains shown) VH: QVTLKESGPGILQPSQTLSLTCTFSGFSLSTYGLGVGWIRQPSGKGLEWLANIWWDDAKYYNPSLKNRLTISKDTSNNQAFLKIPNVDTADTARYYCARTTKPYYFDYWGQGVMVTVSS VL: HFVLAQPNSVSTNLGSTVKLSCKRSTANIGSNYVNWYQQHEGRSPTTLIYRDDRRPDGVPDRFSGSIDRSSNSALLTINNVQTEDEADYFCQSYSSGINIFGGGTKLTVL : ____
## Result 27.4
